molecular target: MSI1 full-length (mouse, UniProt Q61474 1-362); assay: nsRBNS (natural sequence RNA bind-n-seq); RBNS binding buffer (assumed for nsRBNS): 25 mM Tris pH 7.5, 150 mM KCl, 3 mM MgCl2, 0.01% Triton X-100, 500 ug/ml BSA, 20 U/ml SUPERase-In, 4 C; UNK is unkempt and MSI1 is Musashi-1; names of the RNAs are library labels; protein concentration not given here; high values mean tight binding
Sequence (Q61474 whole entry): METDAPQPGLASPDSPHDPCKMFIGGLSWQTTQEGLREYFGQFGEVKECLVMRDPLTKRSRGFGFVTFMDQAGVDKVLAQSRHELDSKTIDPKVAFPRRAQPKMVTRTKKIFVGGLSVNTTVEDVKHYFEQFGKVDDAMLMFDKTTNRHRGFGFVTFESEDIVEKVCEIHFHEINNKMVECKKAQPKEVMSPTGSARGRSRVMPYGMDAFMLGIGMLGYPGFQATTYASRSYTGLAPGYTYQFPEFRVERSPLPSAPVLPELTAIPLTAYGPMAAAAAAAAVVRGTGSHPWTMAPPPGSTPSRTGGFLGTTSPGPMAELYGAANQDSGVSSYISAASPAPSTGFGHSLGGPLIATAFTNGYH
Whole data set: some 5,800 sequences, median “enrichment r” near 0.54, cut for the highest 2% near 16. The full list was thinned out, with the highest values kept by preference.
Measured binding signal accompanies every entry in the list below.
Reply numerically in enrichment R, unit not repeated.

Known results for binders:
>>> assay_value("chr8:48920054:48920155:-|CDS|ENSG00000019549|unk|FALSE|unique (ssRNA) RNA: GGGAGUUCUACAGUCCGACGAUCACCUAUUCAACUUUUUCUGGGCUGGCCAAACAUAAGCAGCUGCACUGCGAUGCCCAGUCUAGAAAAUCUUUCAGCUGUAAAUACUGUGACAAGGAAUAUGUGAGCCUGGGCGCCCUGAAGCAACAGAGGAUUGAGCAUCA")
0.478
>>> assay_value("chr5:43295829:43295944:-|CDS|ENSG00000112972|unk|FALSE|unique (ssRNA) RNA: GGGAGUUCUACAGUCCGACGAUCAAUAUCCUAGCUUUAUUCUAAAGUCAAACUUUAAAAUUUCAUGGCUUAUAUGAAUUUCAUAGUUUCCUUGGACUUCUCUUUCAGAGGGAAAUGAUAAAGAUUUUACCUUGAAUGAUUUUGCAACAGAGGAUUGAGCAUCA")
0.654
>>> assay_value("chr13:69700593:69701701:-|three_prime_utr|ENSG00000150361|control|control|control (ssRNA) RNA: GGGAGUUCUACAGUCCGACGAUCUUGAAUGGCAAGAAUGAGAACUUCCAGAGAUGAAAACUCUUCAAGAACAAGGAUCUCUGUAGCGUUACCUACUGAUGUUGAAAGAGUUAGUAGAUCAAACAGAAUAGUAGGAAACAAGAACAACAGAGGAUUGAGCAUCA")
4.13

# ---- query binder ----
-- ask Item under review: chr3:125228010:125228111:-|3pUTR|ENSG00000163848|msi1|FALSE|unique (ssRNA) RNA: GGGAGUUCUACAGUCCGACGAUCAGUUCUCUUCAUAUUUCAUAACUACAUUUCAAUAAUUCUAAACUUUCUACAUUGAUUUUUAGAUACUUAUUUUUCAAGCUUGGUUUCUCAGCUGAUCAGAUGAAUUUAUUCAACUUCAAUCAACAGAGGAUUGAGCAUCA . Reported binding signal?
-- reply 5.53
